ASSAY_PROTOCOL: yeast display, Sf9 membrane polyspecificity reagent, FACS + sequencing; frameworks hold sequencing errors

CHAIN: QVQLVESGGGLVQAGGSLRLSCAASGYTFHGYAMGWYRQAPGKERELVAVITQRGGSTYYADSVKGRFTISRDNAKNTVYLQMNSLKPEDTAVYYCAARYAGPSPTDTGHDYWGQGTQVTVSS
polyreactivity (PSR sort gate): low polyreactivity
//
CHAIN: QVQLVESGGGLVQAGGSLRLSCAASGFTFWGNAMGWSRQAPVKERELVAAISRSGGRTYYADSVKGRFTISRDNAKNTVYLQMNSLKPEDTAVYYCDAGSSHHFDYEGGYWGQGTQVTVSS
polyreactivity (PSR sort gate): low polyreactivity
//
CHAIN: QVQLVESGGGLVQAGGSLRLSCAASGRNFPVNAMGWYRQAPGKERELVATISYSGSSTYYADSVKARFTISRDNAKNTVYLQMNSLKPEDTAVYYCNADAESFDDGYWGQGTEVTVSS
polyreactivity (PSR sort gate): low polyreactivity

---

ASSAY_PROTOCOL: yeast display, Sf9 membrane polyspecificity reagent, FACS + sequencing; frameworks hold sequencing errors

CHAIN: QVQLVESGGGLVQAGGSLRLSCAASGSTFPANAMGWYRQAPGKERELVATISWSGGRTYYADSVKGRFTISRDNAKNTVYLQMNSLKPEDTAVYYCAKGYYWLSTYGDSRYGYWGQGTQVTVSS
polyreactivity (PSR sort gate): high polyreactivity
--
CHAIN: QVQLVESGGGLVQAGGSLRLSCAASGFTFDYYTMGWYRQAPGKERELVAAITSSAGSTDYADSVKGRFTISRDYAKNTVYLQMNSLKPEDTAVYYCNADFLYGTYDYWGQGTQVTVSS
polyreactivity (PSR sort gate): low polyreactivity
--
CHAIN: QVQLVESGGGLVQAGGSLRLSCAASGSIFFEYAMGWYRQAAGKERELVAAIDVGGGGTDYADSVKGRFTISRDNAKNTVYLQMNSLKPEDTAVYYCAAQDYYYFGIGASYDYWGQGTQVTVSS
polyreactivity (PSR sort gate): low polyreactivity
--
CHAIN: QVQLVESGGGLVQAGGSLRLSCAASGNIFGRYAMGWYRQAPGKERELVAAINWSGGSTNYADSVKGRFTISRDNAKNTVYLQMNSLKPEDTAVYYCAADYYYSLISNQYKYGQRNFDYWGQGTQVTVSS
polyreactivity (PSR sort gate): low polyreactivity
--
CHAIN: QVHLVESGGGLVQAGGSLRLSCAASGSIFFNNAMGWYRQPPGKERELVAAINYGNGSTYYADSVKGRFTISRDNAKNTVYLQMNSLKPEDTAVYYCNADYTGTRSDSVTPEYEYWGQGTQVTVSS
polyreactivity (PSR sort gate): low polyreactivity
--
CHAIN: QVQLVESGGGLVQAGGSHRLRCAASGITLLLNAMGWYRQAPGKERELVAAISEGGGSTYYAHSVKGRFTISRDNAKNTVYLQMNSLKPEDTAVYYCNADRVYRVPSEYDSWGQGTQVTVSS
polyreactivity (PSR sort gate): low polyreactivity
--
CHAIN: QVQLVESGGGLVQAGGSLRLSCAASGRIFGYYAMGWYRQAPGKERELVAAIDSSGGSTTYADSVKGRFTISRDYAKNTVYLQMNSLKPEDTAVYYCNAGYALRSGPWYYYELDYWGQGTQVTVSS
polyreactivity (PSR sort gate): low polyreactivity
--
CHAIN: QVQLVESGVGLVQAGGSLRLSCAASGFIFKRYAMGWYRQAPGKERELVATISNSGGRTYYADSVKWRFTISRDNAKNTVYLQMNSLKPEDTAVYYCAALPFWWGGYWGQGTQVTVSS
polyreactivity (PSR sort gate): high polyreactivity
--
CHAIN: QVQLVESGGGLVQAGGSLRLSCAASGRIFTGYAMGWYRQAPGKERELVATIRSRGGGTYYADSVKGRFTISRDNAKNTVYLQMNSLKPEDTAVYYCAADDYYYYFGTRYGYWRQGTQVTVSS
polyreactivity (PSR sort gate): low polyreactivity
--
CHAIN: QVQLVESGGGLVQAGGSLRLSCAASGSTFVRYSMGWYRQAPGKERDLVAAITSSGGSTYYADSVKGRFTISRDNAKNSVYFQMNSLKPEDTAVYDFAAARYPYRYIYNYWGQGTQVTVSS
polyreactivity (PSR sort gate): high polyreactivity
--
CHAIN: QVQLEESGGCLVQAGGSLRLSCAASGFTFRGYAMGWYSQAPGKERELVAAISKRGGSTYYADSVKGRFTISRDNAKNTVYLLMNSLKPADTAVYYCNADYYIVGPPYSPTREDYWGQGTQVTVSS
polyreactivity (PSR sort gate): high polyreactivity

---

ASSAY_PROTOCOL: yeast display, Sf9 membrane polyspecificity reagent, FACS + sequencing; frameworks hold sequencing errors

CHAIN: QVQLVESGGGLVQAGGSLRLSCAASGSTFYDYAMGWYRQAPGKERELVASIDSGDSTNYADSVKGRFTISRDNAKNTVYLQMNSLKPEDTAVYYCAADYQNTGARYWYYYWGQGTQVTVSS
polyreactivity (PSR sort gate): low polyreactivity
//
CHAIN: QVQLIESGGGLVQAGGSLRLSCAASGSIFAANAMGWYRQAPGKEREFVASISYTGASTYADSVKGRFTISRDNAKNTVYLQINSLKPEDTAVYYCAKDGYWTGLDPYYYWGQGTQVTVSS
polyreactivity (PSR sort gate): low polyreactivity

---

ASSAY_PROTOCOL: yeast display, Sf9 membrane polyspecificity reagent, FACS + sequencing; frameworks hold sequencing errors

CHAIN: QVQLVESGGGLVQAGGSLRLSCAASGRTFRYYSMGWYRQAPGKERELVAAISSRGNTYYADSVKGRFTISRDNAKNTVYLQMNSLKPEDTAVYYCAARNVVTGYRYDYWGHGTQVTVSS
polyreactivity (PSR sort gate): high polyreactivity
//
CHAIN: QVQLVESGGGLVQAGGSLRLSCAASGRTFGVYAMGWYRQAPGKESELVAAISRLAGNTYYADSVKGRFTISRDNAKNTVYLQMNSLKPEDTAVYYCAADFSRQYGYWGQGTQVTVSS
polyreactivity (PSR sort gate): high polyreactivity
//
CHAIN: QVQLVESGGGLDQAGGSLRLSCAASGFTFYPYTMGWYRQAPGKERELVADITYDSTYYADSVKGRFTISRDNAKNTVFLQMNSLKPADTAVYYCNATGYSVSRSAYWYGWYDYWGQGTQVTVSS
polyreactivity (PSR sort gate): low polyreactivity
//
CHAIN: QVQLVESGGGLVQAGGSLRLTCAASGRTFGDNAMGWYRQAPWKERELVAAITSGASTYYADAVKGRFTISRDNAMNTVYLQMNSLKPEDTAVYYCADDQGDWNGYGFDYWGQGTQVTVSS
polyreactivity (PSR sort gate): low polyreactivity
//
CHAIN: QVQLVESGGGLVQAGGSLRLSCAASGRTFAYYVMGWYIQAPGTERELVAAISWSAGCTYYADSVKGRFTISRDNAKNTVYLQMNSLIPEDTAVDYCAADYRFRYEYWGQGTQVTVSS
polyreactivity (PSR sort gate): low polyreactivity
//
CHAIN: QVQLVESGGGLVQAGGSHRLSCAASGSIFRRYAMGWYRQAPGKERELVAAIDSGGNTYADSVKGRFTISRDNAKNTVYLQMISLQPEDTAVYYCSADGGEFSSYGYWGQGTQVTVSS
polyreactivity (PSR sort gate): low polyreactivity
//
CHAIN: QVQLVESAGGLVQEGGSLRLSCAASGRTFYNAMGGYRQAPGKERELVAAISANGGSTTYADSVKGRFTISRDNAKNTVYLQMNSLKPEDTAVYYCNTYYWYSGSPYDYWGQGTQVTVSS
polyreactivity (PSR sort gate): low polyreactivity
//
CHAIN: QVQLVESGGGLVQAGVSLRLSCAASGFTFDYYTMGWYRQAPGKEREFVAAITWNGGTTNYADSVKGRFTISRDNAKNTVYLQMNSLKPEDTAVYYCAATAYWYYSNDSGRSYDYWGQGTQVTVSS
polyreactivity (PSR sort gate): low polyreactivity
//
CHAIN: QVQLVESGGGLVQAGGSLRLSCVASGRIFLTYAMGWYRQAPGKERELVAAISYSGASTYYADSVKGRFTISRDNAKNTVYLQMNSLKPEDTSVYYCATERVGTPRMNYWGQGTQVTVSS
polyreactivity (PSR sort gate): high polyreactivity
//
CHAIN: QVQLVESGGGLVQAGGSLRLTCAASGSIYGVYAMGWSIQGPGKEREWVAVISWNGGRTYYADSVKGRFTISRDNAKNTVYLQMNSLKPEDTAVYYCAADTSYRYRDYHVDYWGQGTQVTVSS
polyreactivity (PSR sort gate): high polyreactivity
//
CHAIN: QVQLVESGGGLVQAGGSLRLSCAASGSIFKSYAMGWYRKAPGKERELVAAITWRSGRTYYADSLKGRFTISRDNAKNTVYLQMNSLKPEDTAVYYCAAELVSVRYLYALHDRDYWGKGTQVTVSS
polyreactivity (PSR sort gate): low polyreactivity

---

ASSAY_PROTOCOL: yeast display, Sf9 membrane polyspecificity reagent, FACS + sequencing; frameworks hold sequencing errors

CHAIN: QDQLVESGGGLVQAGGSLRLICAASGSIFTFYDMGWYRQAAGNERELVAAISSGGSTTYADSVKGRFTISRDNAKNTVYLQMNSLKPEDTAFYYCAADSQPYLYPVEYDYWRQGTQVTVSS
polyreactivity (PSR sort gate): low polyreactivity

CHAIN: QVQLVESGGGLVQAGGSLRLSCAASGITFRYYTMGWYRQAPGKERELVAAITTSGTGTYYADSVKGRFTISRDNAKNTVYLQMNSLNPEYSAVYYCATYPHIAVLSRYDYWGQGTQVTVSS
polyreactivity (PSR sort gate): low polyreactivity

CHAIN: QVQLVESGGGLVQAGGSLRLSCAASGSTFPAYAMGWYRQAPGKERELVAGISSGGRTYYADSVKGRFTISRDNAKNTVYLQMNSLKPEDTAVYYCAAFRFYWQRPDRYYYWGQGTQVTVSS
polyreactivity (PSR sort gate): high polyreactivity

CHAIN: QVQLVESGGGLVQARGSLRLSCAASGSIFYGYALGWYRQAPGKERELVAAITSSGTRTYYADSVKGRFTISRDNAKNTVYLQMNSLKPEDTAVYYCAADGPGYQYDFWGQGTQVTVSS
polyreactivity (PSR sort gate): high polyreactivity

CHAIN: QVQLVESGGGLVQAGGSLRLSCAASGSIFGYYAMGWYRQAPGKERELVATITTRGARTYYADSVKGRFTISRDNAKNTVYLQMNSLKPEDTAVYYCAAYGYYNFGYYYWGQGTQVTVSS
polyreactivity (PSR sort gate): high polyreactivity

CHAIN: QVQLVESGGGLVQAGGSLRLSCAASGLSFSVYAMGWSRQAPGTERELVASIDLSGGNTYYADSVKGRFTISRDNAKNTVYLQMNSLKPEDTAVYYCAKYNPYYYSFSVWDGGDYWGQGTQVTVSS
polyreactivity (PSR sort gate): low polyreactivity

CHAIN: QVQLVESGGGLVQAGGSLRLSCAASGLIFPSYAMGWYRQAPGKEMELVAAITFSGSDTNYADSVKGRFTISRDNAKNTVYLQMNSLKPEDTAVAYCAAAYFDFWGWLHDYWGQGTQVTVSS
polyreactivity (PSR sort gate): low polyreactivity

CHAIN: QVQLVESGGGLVQAGGSLRLSCAASGRIFYYYAMLWYRQAPGKERELVAAIRRGGSTNYADSVKGRFTISRDNAKNTVYLQMNSLKPEETAVYYCAARSARLEYYYWGQGTQVTVSS
polyreactivity (PSR sort gate): high polyreactivity

CHAIN: QVQLVESGGGLVQAGGSLRLSCAASGLIFRSYAMGWYRQEPGKERELVARISIRGGSTYYADSVKGRFTISRDNAKNTVYLQMNSLKPEDTAVYYCAADYASWSNWGYEYWGQGTQVTVSS
polyreactivity (PSR sort gate): high polyreactivity

CHAIN: QVQLVESGGGLVQAGGSLRLSCAASGITFIRNGMGWYRQAPGKERELVAAISYTGARTYYADSVKGRFTISRDNAKNTVYLQMNSLKPEDNAVYYCAAEVRTRYLYSFRWYDYWGEGTQVTVSS
polyreactivity (PSR sort gate): low polyreactivity

CHAIN: QVQLVESGGGLVQAGGSLRLSCAASGFTFVRNAMGWYRQAPGKERELVAAISGSGGRTYYADSVKGRFTISRDNAKNTVYLQMNSLKPEDTAVYDCNTASAYEYEYWGQGTQVTVSS
polyreactivity (PSR sort gate): high polyreactivity

Each recorded value in this set is attributed to the nanobody polyreactivity screen of Harvey et al. (2022).
